Data provenance is ChEMBL document CHEMBL1629492.

molecular target: Alpha-1A adrenergic receptor (Homo sapiens)
Sequence (P35348 whole entry): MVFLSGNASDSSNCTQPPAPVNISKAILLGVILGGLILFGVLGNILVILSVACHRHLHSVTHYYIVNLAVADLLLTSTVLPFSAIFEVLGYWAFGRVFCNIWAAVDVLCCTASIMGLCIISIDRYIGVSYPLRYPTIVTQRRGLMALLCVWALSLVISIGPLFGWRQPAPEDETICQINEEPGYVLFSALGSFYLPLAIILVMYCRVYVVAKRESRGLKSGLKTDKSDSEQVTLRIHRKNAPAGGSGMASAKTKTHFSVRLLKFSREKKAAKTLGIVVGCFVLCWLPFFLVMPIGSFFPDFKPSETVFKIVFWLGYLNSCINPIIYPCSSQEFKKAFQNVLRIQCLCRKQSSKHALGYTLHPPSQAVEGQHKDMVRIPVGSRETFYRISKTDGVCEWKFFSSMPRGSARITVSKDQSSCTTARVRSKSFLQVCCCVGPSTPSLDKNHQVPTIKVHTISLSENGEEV
measured.metric: pKi
The read-out pKi is expressed as -log10 of concentration in moles per litre.

Here's what some known entries look like.
- COc1ccc(C[C@@H](C)NCCOc2ccccc2OCc2ccccc2)cc1S(N)(=O)=O: 9.46
- COc1ccc(C[C@@H](C)NC[C@H]2Oc3ccccc3O[C@H]2C)cc1S(N)(=O)=O: 7.72

Item COc1ccc(C[C@@H](C)NCCOc2ccccc2OC(C)C)cc1S(N)(=O)=O ; assay system Alpha-1A adrenergic receptor (Homo sapiens); pKi reported as 9.47
